target: CYP3A4 (Homo sapiens, UniProt P08684); test: Inhibition of CYP3A4 at 10 uM using testosterone as substrate; format: ADME; conditions: probe testosterone
Sequence (P08684 whole entry): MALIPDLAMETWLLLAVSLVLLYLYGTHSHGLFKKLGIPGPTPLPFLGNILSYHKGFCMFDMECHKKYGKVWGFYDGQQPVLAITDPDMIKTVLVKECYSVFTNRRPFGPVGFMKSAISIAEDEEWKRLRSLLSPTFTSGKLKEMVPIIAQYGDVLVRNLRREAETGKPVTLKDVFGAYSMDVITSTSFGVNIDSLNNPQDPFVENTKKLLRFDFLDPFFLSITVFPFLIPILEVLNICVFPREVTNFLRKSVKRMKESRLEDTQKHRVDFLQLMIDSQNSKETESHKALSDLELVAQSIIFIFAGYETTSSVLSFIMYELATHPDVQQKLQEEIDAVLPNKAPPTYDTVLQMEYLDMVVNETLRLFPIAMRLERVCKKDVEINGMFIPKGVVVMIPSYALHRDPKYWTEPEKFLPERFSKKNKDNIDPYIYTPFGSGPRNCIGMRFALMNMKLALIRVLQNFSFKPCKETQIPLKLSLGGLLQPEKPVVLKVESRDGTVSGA
measurement.label: inhibition at 10 µM (%)

Consider the reported inhibition at 10 µM for these molecules:
smiles.text: Cc1cc(C)cc(NC(=O)c2cccnc2SCc2ccnc(NC(=O)CNCCCO)c2)c1
inhibition at 10 µM / %: 23
//
smiles.text: CN(C)CC(=O)Nc1cc(CSc2ncccc2C(=O)Nc2ccc(OC(F)(F)F)cc2)ccn1
inhibition at 10 µM / %: 19
//
smiles.text: CC(=O)Nc1cc(CSc2ncccc2C(=O)Nc2cc(C)cc(C)c2)ccn1
inhibition at 10 µM / %: 20

A. CSc1cc(CSc2ncccc2C(=O)Nc2cc(C)cc(C)c2)ccn1
B. Cc1cc(C)cc(NC(=O)c2cccnc2SCc2ccnc(N)c2)c1
C. Cc1cc(C)cc(NC(=O)c2cccnc2SCc2ccnc(F)c2)c1
Problem: Sequence the entries by inhibition at 10 µM, beginning with the highest number. Please write the labels in the order that was asked for.
Solution: A, C, B
(A: 69%, C: 40%, B: 21%)
